- TEST SYSTEM: Cyclin-dependent kinase 1/cyclin B1 (Homo sapiens)
- Sequence (P06493 whole entry): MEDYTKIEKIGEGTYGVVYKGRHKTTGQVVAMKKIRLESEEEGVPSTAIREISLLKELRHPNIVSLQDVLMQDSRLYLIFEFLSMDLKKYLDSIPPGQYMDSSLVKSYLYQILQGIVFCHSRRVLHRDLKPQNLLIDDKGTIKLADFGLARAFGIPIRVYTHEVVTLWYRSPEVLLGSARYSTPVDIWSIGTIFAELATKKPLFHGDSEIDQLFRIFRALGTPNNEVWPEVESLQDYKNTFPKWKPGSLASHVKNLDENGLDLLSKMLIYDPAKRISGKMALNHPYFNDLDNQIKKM
- Sequence (P14635 whole entry, further chain): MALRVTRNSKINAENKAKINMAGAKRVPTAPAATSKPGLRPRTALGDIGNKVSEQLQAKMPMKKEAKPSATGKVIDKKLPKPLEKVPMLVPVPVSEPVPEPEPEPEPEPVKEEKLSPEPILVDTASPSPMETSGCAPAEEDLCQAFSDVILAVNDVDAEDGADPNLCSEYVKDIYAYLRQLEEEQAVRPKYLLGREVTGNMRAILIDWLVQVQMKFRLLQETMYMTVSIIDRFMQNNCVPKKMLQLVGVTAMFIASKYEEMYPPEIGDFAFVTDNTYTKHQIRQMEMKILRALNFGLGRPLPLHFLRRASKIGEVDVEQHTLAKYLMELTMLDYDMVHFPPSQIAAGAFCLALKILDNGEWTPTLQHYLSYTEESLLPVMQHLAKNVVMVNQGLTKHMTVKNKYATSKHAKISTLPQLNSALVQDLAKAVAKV
- EXPERIMENT SUMMARY: Inhibition of CDK1/cyclin B
Measured pIC50 values are reported for all entries that follow.
Units for pIC50: none; it is -log10 of a concentration expressed in mol/L.

// field: pIC50; key: COc1ccc(-c2csc3c2-n2cccc2C3=O)cc1O ; value = 5.26

---
// field: pIC50; key: COc1ccc(-c2c[nH]c3c2-n2cccc2/C3=N/O)cc1O ; value = 5.42

// field: pIC50; key: COc1ccc(-c2c[nH]c3c2-n2cccc2C3=O)cc1O ; value = 4.66

// field: pIC50; key: COc1ccc(-c2c[nH]c3c2-n2cccc2/C3=N/O)cc1OCc1ccccc1 ; value = 5.05
